target: UniProtKB P10721
Sequence (P10721 26-976, species assumed): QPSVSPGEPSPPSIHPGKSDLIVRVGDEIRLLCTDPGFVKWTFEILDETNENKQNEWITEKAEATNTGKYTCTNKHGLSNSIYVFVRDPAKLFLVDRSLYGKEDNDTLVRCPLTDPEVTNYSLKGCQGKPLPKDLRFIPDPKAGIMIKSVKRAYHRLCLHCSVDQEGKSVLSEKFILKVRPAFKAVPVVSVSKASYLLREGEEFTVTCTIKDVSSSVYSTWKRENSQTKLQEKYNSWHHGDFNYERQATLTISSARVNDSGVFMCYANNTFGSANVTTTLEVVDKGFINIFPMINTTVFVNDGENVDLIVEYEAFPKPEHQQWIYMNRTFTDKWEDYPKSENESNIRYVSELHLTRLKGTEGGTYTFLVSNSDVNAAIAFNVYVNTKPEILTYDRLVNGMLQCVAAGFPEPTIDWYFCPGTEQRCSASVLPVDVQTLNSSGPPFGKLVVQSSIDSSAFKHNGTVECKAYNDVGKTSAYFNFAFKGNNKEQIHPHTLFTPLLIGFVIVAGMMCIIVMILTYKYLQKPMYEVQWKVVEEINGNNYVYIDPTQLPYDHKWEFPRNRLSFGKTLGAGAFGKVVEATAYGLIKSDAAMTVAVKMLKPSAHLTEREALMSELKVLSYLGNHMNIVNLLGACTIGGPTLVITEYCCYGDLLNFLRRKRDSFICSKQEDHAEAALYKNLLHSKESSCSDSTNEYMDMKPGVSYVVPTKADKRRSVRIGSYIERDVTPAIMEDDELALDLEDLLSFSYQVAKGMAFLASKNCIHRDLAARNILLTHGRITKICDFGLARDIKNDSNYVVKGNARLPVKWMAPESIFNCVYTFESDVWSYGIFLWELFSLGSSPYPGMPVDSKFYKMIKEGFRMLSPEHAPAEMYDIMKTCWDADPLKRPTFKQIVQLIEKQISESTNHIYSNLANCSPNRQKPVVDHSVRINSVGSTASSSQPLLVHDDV
READOUT_NAME: pIC50
Entry type: numeric. Quantity: pIC50, the -log10 of concentration in molar units.

UniProtKB P10721 / pIC50 / Cc1ccc(C(=O)Nc2cc(Cl)cc(C(F)(F)F)c2)cc1C#Cc1cnc2ccc(N3CCC(O)CC3)nn12 [XS4-128, reference compound] : value?
7.03

###

Each entry below lists one item and its recorded pIC50 value.
biological target: BaF3-ETV6-NTRK3 (Homo sapiens); construct: fused on or other part: P41212 (Transcription factor ETV6); assay: Cell proliferation inhibition, Ba/F3-TRKs stable strain (CCK-8); conditions: 72 hours, read-out: cell viability IC50 ETV6-NTRK3
pIC50: −log10 of the molar value.

COMPOUND: Cc1c(C#Cc2cnc3ccc(N4CC[C@H](O)C4)nn23)cccc1C(=O)Nc1cc(CN2CCN(C)CC2)cc(C(F)(F)F)c1 [XS3-36]
pIC50: 7.00 to 8.00

May I ask what pIC50 has been recorded for Cc1c(C#Cc2cnc3ccc(N(C)CCN(C)C)nn23)cccc1C(=O)Nc1cc(Cl)cc(C(F)(F)F)c1 [XS3-134] ?
7.00 to 8.00

May I ask what pIC50 has been recorded for Cc1c(C#Cc2cnc3ccc(N4CCOCC4)nn23)cccc1C(=O)Nc1cc(CN2CCN(C)CC2)cc(C(F)(F)F)c1 [XS3-68] ?
> 8.00

May I ask what pIC50 has been recorded for Cc1c(C#Cc2cnc3ccc(N4CCOCC4)nn23)cccc1C(=O)Nc1cc(F)cc(C(F)(F)F)c1 [XS4-80] ?
7.00 to 8.00

May I ask what pIC50 has been recorded for Cc1c(C#Cc2cnc3ccc(N4CCC(N5CCOCC5)CC4)nn23)cccc1C(=O)Nc1cc(Cl)cc(C(F)(F)F)c1 [XS3-130] ?
7.00 to 8.00

May I ask what pIC50 has been recorded for Cc1c(C#Cc2cnc3ccc(N4CCC(O)CC4)nn23)cccc1C(=O)Nc1cc(Cl)cc(C(F)(F)F)c1 [XS3-55] ?
7.00 to 8.00

May I ask what pIC50 has been recorded for Cc1c(C#Cc2cnc3ccc(N4CCOCC4)nn23)cccc1C(=O)Nc1cc([N+](=O)[O-])cc(C(F)(F)F)c1 [XS4-77] ?
> 8.00

###

biological target: BaF3-ETV6-NTRK3 (Homo sapiens, UniProt Q16288); construct: fused on or other part: P41212 (Transcription factor ETV6); assay: Cell proliferation inhibition, Ba/F3-TRKs stable strain (CCK-8); details: 72 hours, read-out: cell viability IC50 ETV6-NTRK3
Sequence (Q16288 whole entry, the tested form may be a part): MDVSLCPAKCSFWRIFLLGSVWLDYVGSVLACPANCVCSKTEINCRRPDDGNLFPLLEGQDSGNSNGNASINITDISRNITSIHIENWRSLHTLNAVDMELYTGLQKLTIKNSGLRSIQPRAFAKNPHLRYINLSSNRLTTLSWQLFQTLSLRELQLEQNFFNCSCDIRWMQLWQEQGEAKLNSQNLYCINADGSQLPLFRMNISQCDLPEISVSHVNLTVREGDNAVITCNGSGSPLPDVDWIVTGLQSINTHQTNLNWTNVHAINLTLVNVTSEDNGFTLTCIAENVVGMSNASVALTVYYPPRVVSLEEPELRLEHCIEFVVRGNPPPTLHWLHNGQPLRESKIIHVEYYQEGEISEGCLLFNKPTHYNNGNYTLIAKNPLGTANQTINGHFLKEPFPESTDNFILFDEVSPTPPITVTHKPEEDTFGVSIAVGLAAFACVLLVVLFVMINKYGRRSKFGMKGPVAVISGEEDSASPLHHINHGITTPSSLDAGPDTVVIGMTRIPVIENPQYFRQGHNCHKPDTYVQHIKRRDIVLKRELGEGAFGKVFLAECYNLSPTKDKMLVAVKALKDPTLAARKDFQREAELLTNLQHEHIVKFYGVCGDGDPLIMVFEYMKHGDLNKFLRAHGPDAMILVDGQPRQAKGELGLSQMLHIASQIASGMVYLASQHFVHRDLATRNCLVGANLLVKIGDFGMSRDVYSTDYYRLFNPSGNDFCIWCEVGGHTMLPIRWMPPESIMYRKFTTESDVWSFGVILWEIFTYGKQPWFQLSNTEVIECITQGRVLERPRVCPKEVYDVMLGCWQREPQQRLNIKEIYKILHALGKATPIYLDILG
Each entry below lists one item and its recorded IC50 value.

// solved cases for IC50 follow
COMPOUND: Cc1c(C#Cc2cnc3ccc(N4CCC(N(C)C)CC4)nn23)cccc1C(=O)Nc1cccc(C(F)(F)F)c1 [XS3-57]
TARGET_DESC: BaF3-ETV6-NTRK3 (Homo sapiens, UniProt Q16288)
IC50: 0.01 to 0.1 µM

COMPOUND: Cc1c(C#Cc2cnc3ccc(N4CCC(N)CC4)nn23)cccc1C(=O)Nc1cc(Cl)cc(C(F)(F)F)c1 [XS3-131]
TARGET_DESC: BaF3-ETV6-NTRK3 (Homo sapiens, UniProt Q16288)
IC50: 0.01 to 0.1 µM

COMPOUND: COc1cc(NC(=O)c2cccc(C#Cc3cnc4ccc(N5CCOCC5)nn34)c2C)cc(C(F)(F)F)c1 [XS4-72]
TARGET_DESC: BaF3-ETV6-NTRK3 (Homo sapiens, UniProt Q16288)
IC50: < 0.01 µM

COMPOUND: Cc1c(C#Cc2cnc3ccc(NCCCCO)nn23)cccc1C(=O)Nc1cc(Cl)cc(C(F)(F)F)c1 [XS3-139]
TARGET_DESC: BaF3-ETV6-NTRK3 (Homo sapiens, UniProt Q16288)
IC50: 0.01 to 0.1 µM

COMPOUND: Cc1c(C#Cc2cnc3ccc(N4CCN(C5COC5)CC4)nn23)cccc1C(=O)Nc1cc(Cl)cc(C(F)(F)F)c1 [XS3-138]
TARGET_DESC: BaF3-ETV6-NTRK3 (Homo sapiens, UniProt Q16288)
IC50: < 0.01 µM

COMPOUND: COCCNc1ccc2ncc(C#Cc3cccc(C(=O)Nc4cc(Cl)cc(C(F)(F)F)c4)c3C)n2n1 [XS3-135]
TARGET_DESC: BaF3-ETV6-NTRK3 (Homo sapiens, UniProt Q16288)
IC50: 0.01 to 0.1 µM

May I ask what IC50 has been recorded for Cc1c(C#Cc2cnc3ccc(N4CCC(O)CC4)nn23)cccc1C(=O)Nc1cc(CN2CCN(C)CC2)cc(C(F)(F)F)c1 [XS3-81] ?
< 0.01 µM

May I ask what IC50 has been recorded for Cc1cc(NC(=O)c2cccc(C#Cc3cnc4ccc(N5CCOCC5)nn34)c2C)cc(C(F)(F)F)c1 [XS4-81] ?
< 0.01 µM

May I ask what IC50 has been recorded for Cc1c(C#Cc2cnc3ccc(N4CCOCC4)nn23)cccc1C(=O)Nc1cc(C(F)(F)F)cc(C(F)(F)F)c1 [XS4-76] ?
0.01 to 0.1 µM

May I ask what IC50 has been recorded for Cc1c(C#Cc2cnc3ccc(NCCN4CCOCC4)nn23)cccc1C(=O)Nc1cc(Cl)cc(C(F)(F)F)c1 [XS3-53] ?
0.01 to 0.1 µM

May I ask what IC50 has been recorded for Cc1cn(-c2cc(NC(=O)c3cccc(C#Cc4cnc5ccc(N6CCC(O)CC6)nn45)c3C)cc(C(F)(F)F)c2)cn1 [XS3-87] ?
< 0.01 µM

May I ask what IC50 has been recorded for Cc1c(C#Cc2cnc3ccc(N4CCC(N(C)C)CC4)nn23)cccc1C(=O)Nc1cc(Cl)cc(C(F)(F)F)c1 [XS3-56] ?
0.01 to 0.1 µM

May I ask what IC50 has been recorded for Cc1c(C#Cc2cnc3ccc(N4CCOCC4)nn23)cccc1C(=O)Nc1cccc(C(F)(F)F)c1 [XS3-23] ?
0.01 to 0.1 µM

May I ask what IC50 has been recorded for Cc1c(C#Cc2cnc3ccc(N4CCN(C)CC4)nn23)cccc1C(=O)Nc1cc(Cl)cc(C(F)(F)F)c1 [XS3-51] ?
0.01 to 0.1 µM

May I ask what IC50 has been recorded for Cc1c(C#Cc2cnc3cccnn23)cccc1C(=O)Nc1cc(Cl)cc(C(F)(F)F)c1 [XS2-112] ?
0.1 to 1 µM

###

test: Pharmacokinetic and oral bioavailability tests in SD rats; assay type: in vivo; conditions: Sprague-Dawley (SD), rat, plasma, intravenous injection, 2.0 mg/kg
READOUT_NAME: Tmax (min)
Write down the numeric answer in min and omit the unit.

May I ask what Tmax has been recorded for Cc1c(C#Cc2cnc3ccc(N4CCC(O)CC4)nn23)cccc1C(=O)Nc1cc(Cl)cc(C(F)(F)F)c1 ?
4.8

###

target: BaF3-CD74-NTRK1 (Homo sapiens, UniProt P04629); construct: fused on or other part: P04233 (HLA class II histocompatibility antigen gamma chain); experiment: Cell proliferation inhibition, Ba/F3-TRKs stable strain (CCK-8); settings: 72 hours, read-out: cell viability IC50 CD74-NTRK1
Sequence (P04629 510-796 limits assumed): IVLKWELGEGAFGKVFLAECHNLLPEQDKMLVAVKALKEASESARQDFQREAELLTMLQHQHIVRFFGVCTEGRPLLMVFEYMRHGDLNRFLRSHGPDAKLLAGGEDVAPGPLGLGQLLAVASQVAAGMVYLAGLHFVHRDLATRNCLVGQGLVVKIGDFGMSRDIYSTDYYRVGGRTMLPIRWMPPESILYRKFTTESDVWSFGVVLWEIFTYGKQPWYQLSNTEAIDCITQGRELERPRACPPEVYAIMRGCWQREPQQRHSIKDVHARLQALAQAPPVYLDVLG
Each entry below lists one item and its recorded IC50 value.

// solved cases for IC50 follow
MOLECULAR_STRING: Cc1c(C#Cc2cnc3ccc(N4CCOCC4)nn23)cccc1C(=O)Nc1cccc(C(F)(F)F)c1
TARGET_DESC: BaF3-CD74-NTRK1 (Homo sapiens, UniProt P04629)
IC50: 0.01 to 0.1 µM
--
MOLECULAR_STRING: Cc1c(C#Cc2cnc3ccc(N4CCOCC4)nn23)cccc1C(=O)Nc1cc([N+](=O)[O-])cc(C(F)(F)F)c1
TARGET_DESC: BaF3-CD74-NTRK1 (Homo sapiens, UniProt P04629)
IC50: 0.01 to 0.1 µM
--
MOLECULAR_STRING: Cc1c(C#Cc2cnc3ccc(N4CCOCC4)nn23)cccc1C(=O)Nc1cc(C(F)(F)F)cc(C(F)(F)F)c1
TARGET_DESC: BaF3-CD74-NTRK1 (Homo sapiens, UniProt P04629)
IC50: 0.01 to 0.1 µM
--
MOLECULAR_STRING: Cc1c(C#Cc2cnc3cccnn23)cccc1C(=O)Nc1cc(Cl)cc(C(F)(F)F)c1
TARGET_DESC: BaF3-CD74-NTRK1 (Homo sapiens, UniProt P04629)
IC50: 0.1 to 1 µM

May I ask what IC50 has been recorded for COCCNc1ccc2ncc(C#Cc3cccc(C(=O)Nc4cc(Cl)cc(C(F)(F)F)c4)c3C)n2n1 ?
0.1 to 1 µM

May I ask what IC50 has been recorded for Cc1c(C#Cc2cnc3cccnn23)cccc1C(=O)Nc1cccc(C(F)(F)F)c1 ?
0.1 to 1 µM

May I ask what IC50 has been recorded for Cc1c(C#Cc2cnc3ccc(N4CCC(C)(O)CC4)nn23)cccc1C(=O)Nc1cc(Cl)cc(C(F)(F)F)c1 ?
0.01 to 0.1 µM

May I ask what IC50 has been recorded for Cc1c(C#Cc2cnc3ccc(N4CC[C@H](O)C4)nn23)cccc1C(=O)Nc1cc(CN2CCN(C)CC2)cc(C(F)(F)F)c1 ?
0.01 to 0.1 µM

May I ask what IC50 has been recorded for Cc1c(C#Cc2cnc3ccc(N4CCC(N(C)C)CC4)nn23)cccc1C(=O)Nc1cc(Cl)cc(C(F)(F)F)c1 ?
0.1 to 1 µM

May I ask what IC50 has been recorded for Cc1c(C#Cc2cnc3ncccn23)cccc1C(=O)Nc1cc(CN2CCN(C)CC2)cc(C(F)(F)F)c1 ?
> 1 µM

May I ask what IC50 has been recorded for Cc1cn(-c2cc(NC(=O)c3cccc(C#Cc4cnc5ccc(N6CCOCC6)nn45)c3C)cc(C(F)(F)F)c2)cn1 ?
0.01 to 0.1 µM

May I ask what IC50 has been recorded for Cc1c(C#Cc2cnc3ccc(N4CCC(N)CC4)nn23)cccc1C(=O)Nc1cc(Cl)cc(C(F)(F)F)c1 ?
0.1 to 1 µM

May I ask what IC50 has been recorded for COc1cc(NC(=O)c2cccc(C#Cc3cnc4ccc(N5CCOCC5)nn34)c2C)cc(C(F)(F)F)c1 ?
0.01 to 0.1 µM

May I ask what IC50 has been recorded for Cc1c(C#Cc2cnc3ccc(NCCN4CCOCC4)nn23)cccc1C(=O)Nc1cc(Cl)cc(C(F)(F)F)c1 ?
0.01 to 0.1 µM

May I ask what IC50 has been recorded for Cc1c(C#Cc2cnc3cccnn23)cccc1C(=O)Nc1cc(CN2CCN(C)CC2)cc(C(F)(F)F)c1 ?
0.1 to 1 µM

Entry source: patent US11834454B2
